TEST_METHOD_NOTES: Pharmacokinetic profiles after p.o., i.p. and i.v. administration
Assay type: in vivo, Wistar rats
PROTOCOL_CONDITIONS: Wistar, rat, plasma, iv; i.v. 50 mg/kg, rats; read-out: Ke, elimination rate constant (converted)
REPORTED_METRIC: k el
Write the numeric value and follow it with the unit.

Exercise: Can you share its k el? I mean this compound: "O=C(/C=C(/Br)C(=O)O)Nc1ccc(O)c(C(=O)O)c1"
Key: 0.000222 s⁻¹

----------
TEST_METHOD_NOTES: Distribution of C1 in tissues
Format: in vivo, Wistar rats
PROTOCOL_CONDITIONS: male, Wistar, rat, stomach, po, 75 mg/kg, Stomach, 10 min, p.o. 75 mg/kg, n = 3; read-out: Average Concentration
REPORTED_METRIC: concentration at 10 min
Kindly report the value followed by its unit.

Exercise: Given the compound O=C(/C=C(/Br)C(=O)O)Nc1ccc(O)c(C(=O)O)c1 [Compound C1] , what is its reported concentration at 10 min?
Key: 18300 ng/mL

----------
TEST_METHOD_NOTES: Distribution of C1 in tissues
Type: in vivo, Wistar rats
PROTOCOL_CONDITIONS: male, Wistar, rat, small intestine, po, 75 mg/kg, Small intestine, p.o. 75 mg/kg, individual rats; read-out: Concentration (µg/mL) at 90 minutes, Rat 1-3
REPORTED_METRIC: concentration at 90 min (µg/mL)
Numbers only, in µg/mL.

Exercise: Any idea what its concentration at 90 min is? The compound is "O=C(/C=C(/Br)C(=O)O)Nc1ccc(O)c(C(=O)O)c1"
Key: 15.1

----------
TEST_METHOD_NOTES: Pharmacokinetic profiles after p.o., i.p. and i.v. administration
Type: in vivo, Wistar rats
PROTOCOL_CONDITIONS: Wistar, rat, plasma, po, 50 mg/kg, plasma, i.g. (p.o.) 50 mg/kg, 720 min, individual rats; read-out: Concentration (µg/mL), Rat 1-6
REPORTED_METRIC: concentration at 720 min

Exercise: GET /values?readout=concentration at 720 min&item= O=C(/C=C(/Br)C(=O)O)Nc1ccc(O)c(C(=O)O)c1 [Compound C1]
Key: 0 µg/mL

----------
TEST_METHOD_NOTES: Pharmacokinetic profiles after p.o., i.p. and i.v. administration
Assay type: in vivo, Wistar rats
PROTOCOL_CONDITIONS: Wistar, rat, plasma, iv, 50 mg/kg, i.v. 50 mg/kg, 5 min, n = 6
REPORTED_METRIC: concentration at 5 min (ng/mL)
Answers are plain numbers, in ng/mL.

Exercise: Endpoint output: concentration at 5 min of O=C(/C=C(/Br)C(=O)O)Nc1ccc(O)c(C(=O)O)c1 [Compound C1] . Value?
Key: 10500

----------
TEST_METHOD_NOTES: Distribution of C1 in tissues
Format: in vivo, Wistar rats
PROTOCOL_CONDITIONS: male, Wistar, rat, small intestine, po, 75 mg/kg, Small intestine, 90 min, p.o. 75 mg/kg, n = 3; read-out: Average Concentration
REPORTED_METRIC: concentration at 90 min (ng/mL)
Give bare numbers, in ng/mL.

Exercise: What value of measured concentration at 90 min is listed for "O=C(/C=C(/Br)C(=O)O)Nc1ccc(O)c(C(=O)O)c1" ?
Key: 15800

----------
TEST_METHOD_NOTES: Pharmacokinetic profiles after p.o., i.p. and i.v. administration
Format: in vivo, Wistar rats
PROTOCOL_CONDITIONS: Wistar, rat, plasma, po, 50 mg/kg, plasma, i.g. (p.o.) 50 mg/kg, 360 min, n = 6; read-out: Average Concentration
REPORTED_METRIC: concentration at 360 min (ng/mL)
Give bare numbers, in ng/mL.

Exercise: concentration at 360 min for "O=C(/C=C(/Br)C(=O)O)Nc1ccc(O)c(C(=O)O)c1" ?
Key: 340

----------
TEST_METHOD_NOTES: Distribution of C1 in tissues
Type: in vivo, Wistar rats
PROTOCOL_CONDITIONS: male, Wistar, rat, lung, po, 75 mg/kg, Lung, 30 min, p.o. 75 mg/kg, n = 3; read-out: Average Concentration
REPORTED_METRIC: concentration at 30 min (ng/mL)
Give bare numbers, in ng/mL.

Exercise: Would you mind telling me what concentration at 30 min value was observed for "O=C(/C=C(/Br)C(=O)O)Nc1ccc(O)c(C(=O)O)c1" ?
Key: 10700

----------
TEST_METHOD_NOTES: Pharmacokinetic profiles after p.o., i.p. and i.v. administration
Type: in vivo, Wistar rats
PROTOCOL_CONDITIONS: Wistar, rat, plasma, ip, 75 mg/kg, i.p. 75 mg/kg, 60 min, n = 6
REPORTED_METRIC: concentration at 60 min (ng/mL)
One number for each entry, in ng/mL.

Exercise: Entry O=C(/C=C(/Br)C(=O)O)Nc1ccc(O)c(C(=O)O)c1 [Compound C1] has what concentration at 60 min?
Key: 15200

----------
TEST_METHOD_NOTES: Distribution of C1 in tissues
Type: in vivo, Wistar rats
PROTOCOL_CONDITIONS: male, Wistar, rat, kidney, po, 75 mg/kg, Kidney, 30 min, p.o. 75 mg/kg, n = 3; read-out: Average Concentration
REPORTED_METRIC: concentration at 30 min (ng/mL)
Answers are plain numbers, in ng/mL.

Exercise: # get_value(readout='concentration at 30 min', item= O=C(/C=C(/Br)C(=O)O)Nc1ccc(O)c(C(=O)O)c1 [Compound C1] )
Key: 6900

----------
TEST_METHOD_NOTES: Distribution of C1 in tissues
Format: in vivo, Wistar rats
PROTOCOL_CONDITIONS: male, Wistar, rat, testis, po, 75 mg/kg, Testis, p.o. 75 mg/kg, individual rats; read-out: Concentration (µg/mL) at 3 h, Rat 1-3
REPORTED_METRIC: concentration at 3 h

Exercise: Dear colleague, I am looking for the recorded concentration at 3 h of the following molecule: O=C(/C=C(/Br)C(=O)O)Nc1ccc(O)c(C(=O)O)c1 [Compound C1]
Key: 3.1 µg/mL

----------
TEST_METHOD_NOTES: Distribution of C1 in tissues
Assay type: in vivo, Wistar rats
PROTOCOL_CONDITIONS: male, Wistar, rat, liver, po, 75 mg/kg, Liver, 30 min, p.o. 75 mg/kg, n = 3; read-out: Average Concentration
REPORTED_METRIC: concentration at 30 min (ng/mL)
Answers are plain numbers, in ng/mL.

Exercise: Which concentration at 30 min reading was recorded for the molecule O=C(/C=C(/Br)C(=O)O)Nc1ccc(O)c(C(=O)O)c1 [Compound C1] ?
Key: 6400

----------
TEST_METHOD_NOTES: Pharmacokinetic profiles after p.o., i.p. and i.v. administration
Type: in vivo, Wistar rats
PROTOCOL_CONDITIONS: Wistar, rat, plasma, ip, 75 mg/kg, plasma, i.p. 75 mg/kg, 720 min, individual rats; read-out: Concentration (µg/mL), Rat 1-6
REPORTED_METRIC: concentration at 720 min (µg/mL)
One number for each entry, in µg/mL.

Exercise: Find the recorded concentration at 720 min belonging to "O=C(/C=C(/Br)C(=O)O)Nc1ccc(O)c(C(=O)O)c1" and report it.
Key: 0

----------
TEST_METHOD_NOTES: Distribution of C1 in tissues
Format: in vivo, Wistar rats
PROTOCOL_CONDITIONS: male, Wistar, rat, spleen, po, 75 mg/kg, Spleen, 3 h, p.o. 75 mg/kg, n = 3; read-out: Average Concentration
REPORTED_METRIC: concentration at 3 h (ng/mL)
Answers are plain numbers, in ng/mL.

Exercise: Value lookup for concentration at 3 h; key = "O=C(/C=C(/Br)C(=O)O)Nc1ccc(O)c(C(=O)O)c1"
Key: 8700

----------
TEST_METHOD_NOTES: Pharmacokinetic profiles after p.o., i.p. and i.v. administration
Type: in vivo, Wistar rats
PROTOCOL_CONDITIONS: Wistar, rat, plasma, po, 50 mg/kg, p.o. 50 mg/kg, rats; read-out: t1/2a, absorption half-life (converted)
REPORTED_METRIC: absorption half-life (h)
One number for each entry, in h.

Exercise: # lookup: absorption half-life of "O=C(/C=C(/Br)C(=O)O)Nc1ccc(O)c(C(=O)O)c1"
Key: 1.4

----------
TEST_METHOD_NOTES: Distribution of C1 in tissues
Type: in vivo, Wistar rats
PROTOCOL_CONDITIONS: male, Wistar, rat, stomach, po, 75 mg/kg, Stomach, 3 h, p.o. 75 mg/kg, n = 3; read-out: Average Concentration
REPORTED_METRIC: concentration at 3 h (ng/mL)
One number for each entry, in ng/mL.

Exercise: Query (compound): O=C(/C=C(/Br)C(=O)O)Nc1ccc(O)c(C(=O)O)c1 [Compound C1] ; field requested: concentration at 3 h
Key: 6400
